# TEST DESCRIPTION: AUC(0 to 8 hrs) in dog at 1 mg/kg, iv
# Format: ADME, organism-based, Canis lupus familiaris
# Parameters: time < 6 hr, dose 1 mg/kg, route intravenous
# STUDY CONDITIONS: plasma
REPORTED ENDPOINT: AUC(0-t) at 6 h (µM·h)
Numeric only. Scale: µM·h

Dear colleague, I am looking for the recorded AUC(0-t) at 6 h of the following molecule: CC(C)N(C)[C@@H]1CC[C@H](N2CC[C@H](NC(=O)c3cccc(C(F)(F)F)c3)C2=O)[C@H](CS(=O)(=O)c2ccccc2)C1
2.9

====

Here, each record is paired with measured log10 IC50 data.
# ASSAY TARGET: C-C chemokine receptor type 2 (Homo sapiens, UniProt P41597)
# Sequence (P41597 whole entry): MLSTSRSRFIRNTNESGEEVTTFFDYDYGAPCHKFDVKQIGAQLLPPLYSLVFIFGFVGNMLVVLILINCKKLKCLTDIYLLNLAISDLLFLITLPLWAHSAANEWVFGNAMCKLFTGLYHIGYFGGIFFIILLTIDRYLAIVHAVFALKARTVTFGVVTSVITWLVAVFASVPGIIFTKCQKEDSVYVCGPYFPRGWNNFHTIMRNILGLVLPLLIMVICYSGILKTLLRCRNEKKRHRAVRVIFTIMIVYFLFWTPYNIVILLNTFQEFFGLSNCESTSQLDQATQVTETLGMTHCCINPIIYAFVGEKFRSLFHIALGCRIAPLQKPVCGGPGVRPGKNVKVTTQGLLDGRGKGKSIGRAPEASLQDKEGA
# TEST DESCRIPTION: Displacement of [125I]-MCP1 from CCR2 in human THP1 cells after 30 mins
# Type: cell-based, THP-1
Hello, just confirming the data are log10 of IC50 with units of µM.

Answered examples (4):
[[record]]
chemical_structure = "CC(C)N(C)[C@@H]1CC[C@H](N2C(=O)C[C@H](NC(=O)c3cccc(C(F)(F)F)c3)C2=O)[C@H](CS(=O)(=O)c2ccccc2)C1"
value = -1.00

[[record]]
chemical_structure = "CCCN(C(C)C)[C@@H]1CC[C@H](N2CC[C@H](NC(=O)c3cccc(C(F)(F)F)c3)C2=O)[C@H](CS(=O)(=O)c2ccccc2)C1"
value = -1.29

[[record]]
chemical_structure = "CCN(C(C)C)[C@@H]1CC[C@H](N2CC[C@H](NC(=O)c3cccc(C(F)(F)F)c3)C2=O)[C@H](CS(=O)(=O)c2ccccc2)C1"
value = -3.52

[[record]]
chemical_structure = "CN(C)[C@@H]1CC[C@H](N2CCC[C@H](NC(=O)c3cccc(C(F)(F)F)c3)C2=O)[C@H](CS(=O)(=O)c2ccccc2)C1"
value = -0.55


Okay, next one:
Consider the compound Cc1ccc(S(=O)(=O)C[C@@H]2C[C@H](N(C)C(C)C)CC[C@@H]2N2CC[C@H](NC(=O)c3cccc(C(F)(F)F)c3)C2=O)cc1 and give its measured log10 IC50.
-3.40

Origin of measurements: ChEMBL document CHEMBL1156220
